B1: FAM189A2 (parent)
chain: VAAALRYLQIFATRRSCIDESQIS

variants of: B1; test: protein stability index of a GFP-peptide fusion (GPS, HEK-293T) (PSI 1-6); higher = more stable; settings: c terminus: a fixed tail appended;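 note: lentivirally expressed fusions sorted by FACS into six bins by GFP to DsRed ratio, PSI derived from sequencing read proportions per bin multiplied by bin number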
measured.property: protein stability index
Give your answer as a number; write no unit.

Reported protein stability index, variant R6L : ____ 3.52

Reported protein stability index, variant A2L : ____ 2.9

Reported protein stability index, variant L8I : ____ 1.98

Reported protein stability index, variant Q9W : ____ 2.67

Reported protein stability index, variant I10A : ____ 1.73

Reported protein stability index, variant I23M : ____ 1.35

Reported protein stability index, variant A3Y : ____ 3

Reported protein stability index, variant A12H : ____ 2.87

Reported protein stability index, variant L5N : ____ 1.92

Reported protein stability index, variant E20Y : ____ 3.14

Reported protein stability index, variant L8Q : ____ 1.6

Reported protein stability index, variant S21K : ____ 2.61

Reported protein stability index, variant A3N : ____ 2.98

Reported protein stability index, variant A3I : ____ 4.72

Reported protein stability index, variant I18Q : ____ 1.95

Reported protein stability index, variant I10Q : ____ 2.37

Reported protein stability index, variant L5M : ____ 1.46

Reported protein stability index, variant A3R : ____ 1.71

Reported protein stability index, variant V1R : ____ 2.21

Reported protein stability index, variant I18D : ____ 2.02

Reported protein stability index, variant I18A : ____ 2.58

Reported protein stability index, variant S21W : ____ 2.67

Reported protein stability index, variant V1E : ____ 1.58

Reported protein stability index, variant Q22T : ____ 1.07

Reported protein stability index, variant I10P : ____ 2.77

Reported protein stability index, variant A3P : ____ 1.52

Reported protein stability index, variant A2Q : ____ 2.29

Reported protein stability index, variant Q9M : ____ 5.39

Reported protein stability index, variant F11R : ____ 2.63

Reported protein stability index, variant L8E : ____ 2.04

Reported protein stability index, variant R15F : ____ 2.52

Reported protein stability index, variant C17S : ____ 1.74

Reported protein stability index, variant Y7L : ____ 2.68

Reported protein stability index, variant Y7P : ____ 2.04

Reported protein stability index, variant I23N : ____ 3.01

Reported protein stability index, variant L5C : ____ 1.18

Reported protein stability index, variant L8R : ____ 1.84

Reported protein stability index, variant Q9T : ____ 3.26

Reported protein stability index, variant E20M : ____ 2.92

Reported protein stability index, variant A3V : ____ 3.92
